target_under_test: GABARs in δ-KO mouse forebrain membranes
test_details: [3H]muscimol displacement, δ-KO forebrain membranes
condition_label: 5 nM [3H]muscimol, δ-KO forebrain membranes, room temperature, mean ± SD
experimental_readout: IC50 (µM)

[ask] Look at this molecule and give its reported IC50. N=C(N)NCCCC(=O)O [γ-GBA, γ-guanidinobutyrate]
[reply] 26

1. NC(N)=NCCS(=O)(=O)O [GES, guanidinoethanesulfonate]
2. [H]/N=C(\N)NCCC(=O)O [β-GPA, β-guanidinopropionate]
3. [H]/N=C(/N)NCC(=O)O [GAA, guanidinoacetate]
[ask] Write the entries in order, lowest recorded IC50 first. The labels, placed in the requested order, form the answer.
[reply] 3, 2, 1

====

target_under_test: GABARs in WT mouse forebrain membranes
test_details: [3H]muscimol displacement, WT forebrain membranes
Assay type: binding
condition_label: 5 nM [3H]muscimol, WT forebrain membranes, room temperature, mean ± SD; read-out: IC50 for [3H]muscimol displacement, WT
pIC50: −log10 of the molar value.
experimental_readout: pIC50

P. N=C(N)NCCCC(=O)O [γ-GBA, γ-guanidinobutyrate]
Q. [H]/N=C(/N)NCC(=O)O [GAA, guanidinoacetate]
R. NC(N)=NCCS(=O)(=O)O [GES, guanidinoethanesulfonate]
[ask] Arrange these 3 compounds in increasing order of pIC50. The labels, placed in the requested order, form the answer.
[reply] R, P, Q

====

Test system: native GABARs in δ-KO cerebellar granule cells (CGCs)
test_details: Whole-cell patch clamp of δ-KO cerebellar granule cells in brain slices, cumulative concentration-response
Format: cell-based, mouse
condition_label: mean ± SEM
experimental_readout: δ-KO slope (Hill slope)
# answer = number (no unit)

[ask] Look at this compound and give its reported δ-KO slope (Hill slope). [H]/N=C(\N)NCCC(=O)O [β-GPA, β-guanidinopropionate]
[reply] 1.3

[ask] How about this compound: NCCCC(=O)O [GABA, γ-aminobutyrate]
[reply] 1.1

[ask] How about this compound: NC(N)=NCCS(=O)(=O)O [GES, guanidinoethanesulfonate]
[reply] 0.83

[ask] How about this compound: [H]/N=C(/N)NCC(=O)O [GAA, guanidinoacetate]
[reply] 0.94

New cases:
[ask] Look at this compound and give its reported δ-KO slope (Hill slope). N=C(N)NCCCC(=O)O [γ-GBA, γ-guanidinobutyrate]
[reply] 0.95

Where do these numbers come from? They come from paper PMC12801676.
